assay.overview: Pharmacokinetics of Compound 1 in combination with MK-3475 in subjects with various cancers
Assay type: in vivo, human
conditions.used: human, plasma, oral, 100 mg BID, Diagnosis NSCLC PD-L1 High, steady state C1D8, geometric mean; read-out: AUC0-12 h (converted)
property: AUC(0-t) (µM·h)
Enter your answer as a number in µM·h; do not include the unit.

Query: Identify AUC(0-t) associated with the compound NS(=O)(=O)NCCNc1nonc1C(=NO)Nc1ccc(F)c(Br)c1
Response: 4.15

* * *

assay.overview: Pharmacokinetics of Compound 1 in combination with MK-3475 in subjects with various cancers
Format: in vivo, human
conditions.used: Diagnosis NSCLC PD-L1 High, steady state C1D8, geometric mean
property: Cmax

Query: Report measured Cmax; entry is NS(=O)(=O)NCCNc1nonc1C(=NO)Nc1ccc(F)c(Br)c1
Response: 815 nM
